Every entry's value here was drawn from patent US9980948B2.

# subject-of-test: Human AMPK α2β2γ1 (Homo sapiens, UniProt O43741+P54646)
# Construct: The full length cDNAs of human AMPK β2 (NM_005399.3) and human AMPK α2 (NM_006252.3); The full length cDNAs of human AMPK β2 (NM_005399.3); the full length cDNA of human AMPK γ1 (NM_002733.3) had been inserted into pET28b(+); 6xHis (N); made in house; host or cells: Escherichia coli BL21 CodonPlus (DE3)-RTL (AMPK); BL21 Star (DE3) (CaMKKβ)
# Sequence (P54646 whole entry): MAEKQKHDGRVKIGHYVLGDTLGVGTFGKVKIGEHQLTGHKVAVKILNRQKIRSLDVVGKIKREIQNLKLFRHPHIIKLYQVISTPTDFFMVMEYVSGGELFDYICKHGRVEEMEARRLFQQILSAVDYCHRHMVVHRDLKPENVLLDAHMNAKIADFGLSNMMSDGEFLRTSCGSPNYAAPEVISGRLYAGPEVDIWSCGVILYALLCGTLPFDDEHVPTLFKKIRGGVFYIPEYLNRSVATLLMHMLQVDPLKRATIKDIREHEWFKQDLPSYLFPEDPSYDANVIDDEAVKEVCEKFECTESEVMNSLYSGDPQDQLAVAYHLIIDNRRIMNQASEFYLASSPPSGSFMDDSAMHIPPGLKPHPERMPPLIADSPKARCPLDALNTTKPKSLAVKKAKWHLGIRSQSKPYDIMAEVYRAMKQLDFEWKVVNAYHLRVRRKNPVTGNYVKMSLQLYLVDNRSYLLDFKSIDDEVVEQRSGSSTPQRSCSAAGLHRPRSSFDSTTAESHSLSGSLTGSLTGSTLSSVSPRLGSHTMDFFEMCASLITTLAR
# Sequence (O43741 whole entry): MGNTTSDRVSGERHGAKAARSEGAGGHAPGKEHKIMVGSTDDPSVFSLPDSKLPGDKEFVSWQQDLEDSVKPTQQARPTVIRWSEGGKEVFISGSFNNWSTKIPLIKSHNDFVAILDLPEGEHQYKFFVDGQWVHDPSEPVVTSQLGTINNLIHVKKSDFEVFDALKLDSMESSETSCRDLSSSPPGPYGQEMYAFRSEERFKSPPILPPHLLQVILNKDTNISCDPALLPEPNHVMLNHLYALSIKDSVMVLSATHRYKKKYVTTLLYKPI
# Sequence (P54619 whole entry partner): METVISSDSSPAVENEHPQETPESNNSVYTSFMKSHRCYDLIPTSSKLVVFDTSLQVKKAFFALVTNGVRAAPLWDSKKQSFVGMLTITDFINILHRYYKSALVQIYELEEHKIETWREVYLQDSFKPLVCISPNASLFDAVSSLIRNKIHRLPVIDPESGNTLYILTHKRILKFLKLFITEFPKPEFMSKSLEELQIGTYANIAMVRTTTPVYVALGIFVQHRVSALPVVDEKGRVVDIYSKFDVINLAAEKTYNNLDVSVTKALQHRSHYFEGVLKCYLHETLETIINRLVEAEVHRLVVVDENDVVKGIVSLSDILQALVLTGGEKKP
# procedure-text: Test Example 2: evaluation of an activator for AMP-activated protein kinase (AMPK), human AMPK α2β2γ1 phosphorylated with CaMKK2, FL-Peptide 7 mobility shift
# Assay type: biochemical
# run-parameters: human AMPK α2β2γ1, relative to control (100%)
measurement-name: Emax (maximum rate of increase in activity within the measurement range) (%)
# unit: % | format: bare number

Solved cases below.
compound | quantitative-readout
O[C@@H]1CO[C@H]2[C@@H]1OC[C@H]2Oc1cc2nc(-c3ccc(N4CCOCC4)cc3)c(C(F)(F)F)cc2[nH]1 | 511
CN=S(C)(=O)c1ccc(-c2ccc(-c3nc4cc(O[C@@H]5CO[C@H]6[C@@H]5OC[C@H]6O)[nH]c4cc3F)cc2)cc1 (stereo partly drawn) | 502

Please fill in: Emax (maximum rate of increase in activity within the measurement range) reported for O[C@@H]1CO[C@H]2[C@@H]1OC[C@H]2Oc1[nH]c2cc(C(F)(F)F)c(-c3ccc(N4CCOCC4)cc3)nc2c1F = 506
